Biological target: PDF(Fe) (peptide deformylase) (Escherichia coli)
Construct: made in house; host or cells: overproducing E. coli cells
Assay: Enantioselective enzymatic deformylation of N-formyl compounds by PDF(Fe), HPLC analysis
Format: biochemical, E. coli
Details: Method B: absence of Li2SO4, 100 mM MOPS/NaOH, 250 mM NaCl, 0.1 mg/ml catalase, pH 7.2, 37° C.
Measured Quantity: E (enantioselectivity, kf/ks)
Give the figure only, with no unit attached.

O=CNC(C(=O)O)c1ccccc1 (stereo not shown) [Example 1, N-formyl-phenylglycine]: 2255

For the next question, use this compound.
Exercise: Please give the measured E (enantioselectivity, kf/ks) for this compound: COc1cccc(CC(C#N)NC=O)c1 (stereo not shown) [Example 11]
Key: 685

====

ks (rate of deformylation of the least rapidly deformylated enantiomer) reference
Target: PDF(Fe) (peptide deformylase) (Escherichia coli, UniProt P0A6K3)
Construct: made in house; host or cells: overproducing E. coli cells
Sequence (P0A6K3 whole entry): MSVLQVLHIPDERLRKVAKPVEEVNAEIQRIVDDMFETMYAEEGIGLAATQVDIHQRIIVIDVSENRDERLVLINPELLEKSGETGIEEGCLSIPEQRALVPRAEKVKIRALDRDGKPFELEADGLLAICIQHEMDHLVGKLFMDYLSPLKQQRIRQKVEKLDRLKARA
Assay: Enantioselective enzymatic deformylation of N-formyl compounds by PDF(Fe), HPLC analysis
Format: biochemical, E. coli
Conditions: Method A: 100 mM MOPS/NaOH, 2 M Li2SO4, pH 7.2, 37° C.
Could you give me the number in M⁻¹ s⁻¹? Just the number is fine.

Use the examples below as a reference point.
C[C@@H](CO)NC=O: 0.018
O=CNC(CO)c1ccccc1 (centres unmarked): 0.34
CC(C)C(C#N)NC=O (centres unmarked): 0.62

For the next question, use this compound.
Exercise: Please give the measured ks (rate of deformylation of the least rapidly deformylated enantiomer) for this compound: CC(NC=O)c1cccc2ccccc12 (centres unmarked)
Key: 0.03

====

Biological target: PDF(Fe) (peptide deformylase) (Escherichia coli, UniProt P0A6K3)
Construct: made in house; host or cells: overproducing E. coli cells
Assay: Enantioselective enzymatic deformylation of N-formyl compounds by PDF(Fe), HPLC analysis
Format: biochemical, E. coli
Settings: Method B: absence of Li2SO4, 100 mM MOPS/NaOH, 250 mM NaCl, 0.1 mg/ml catalase, pH 7.2, 37° C.
Measured Quantity: ks (rate of deformylation of the least rapidly deformylated enantiomer) (M⁻¹ s⁻¹)
Could you give me the number in M⁻¹ s⁻¹? Just the number is fine.

Use the examples below as a reference point.
O=CNC(CO)c1ccccc1 (stereo not shown) [Example 6, N-formyl-phenylglycinol]: 0.029
O=CNC(C(=O)O)c1ccccc1 (stereo not shown) [Example 1, N-formyl-phenylglycine]: 0.0047

For the next question, use this compound.
Exercise: Please give the measured ks (rate of deformylation of the least rapidly deformylated enantiomer) for this compound: COc1cccc(CC(C#N)NC=O)c1 (stereo not shown) [Example 11]
Key: 2

====

eemax (maximum ee value observed) reference
Molecular target: PDF(Fe) (peptide deformylase) (Escherichia coli, UniProt P0A6K3)
Construct: made in house; host or cells: overproducing E. coli cells
Experiment: Enantioselective enzymatic deformylation of N-formyl compounds by PDF(Fe), HPLC analysis
Type: biochemical, E. coli
Conditions: Method A: 100 mM MOPS/NaOH, 2 M Li2SO4, pH 7.2, 37° C.

Use the examples below as a reference point.
CC(C)C(C#N)NC=O (stereo not shown) [Example 10, N-formyl-valine aminonitrile]: 95,5%
O=CNC(CO)c1ccccc1 (stereo not shown) [Example 6, N-formyl-phenylglycinol]: 93,3%

Exercise: Please give the measured eemax (maximum ee value observed) for this molecule: C[C@@H](CO)NC=O [Example 8, N-formyl-alaninol]
Key: 85,6%

Exercise: Please give the measured eemax (maximum ee value observed) for this molecule: CC(NC=O)c1cccc2ccccc12 (stereo not shown) [Example 12, N-formyl-1-(1-naphthyl)-ethylamine]
Key: 90%
